Read-out: Monocyte Chemoattractant Protein-1 (MCP1), CCL2 (gene 6347)
Assay: BSK_SAg_MCP1: BioMAP Diversity Plus: SAg Assay for Monocyte Chemoattractant Protein-1 (MCP1) Biomarker Activity (AID 2283090)
Conditions: primary human HUVEC with PBMC; actives raise or lower the signal
Active and inactive are the calls of the source. The calls were made as follows: active = hit-call score of the fitted dose curve at least 0.9, where 1 is the maximum; inactive = score below 0.9.
Assay endpoint: AC50

COC(=O)c1sccc1S(=O)(=O)NC(=O)Nc1nc(C)nc(OC)n1
inactive
C=CC(=O)OCCCCCC(C)C
inactive
O=C(Nc1ccc2[nH]ccc2c1)c1cc2cc(F)ccc2n1Cc1cccc(F)c1
9.29 µM (active)
COC[C@H](C)N(C(=O)CCl)c1c(C)csc1C
inactive
CCOP(=S)(OCC)Oc1ccc(S(C)=O)cc1 (centres undefined)
inactive

Kindly indicate its recorded AC50. Item: C[C@]12CCC(=O)C[C@@H]1CC[C@@H]1[C@@H]2CC[C@]2(C)[C@@H](O)CC[C@@H]12
28.2 µM (active)

Kindly indicate its recorded AC50. Item: Cn1sc(Cl)cc1=O
30.7 µM (active)

Kindly indicate its recorded AC50. Item: CC(C)c1ccc(CO)cc1
inactive

Kindly indicate its recorded AC50. Item: CCCCC(CC)CO[N+](=O)[O-] (centres undefined)
inactive

Kindly indicate its recorded AC50. Item: CCSC(C)CC1CC(=O)C(C(CC)=NOC/C=C/Cl)=C(O)C1 (centres undefined)
inactive

Kindly indicate its recorded AC50. Item: CCC(=O)C(CC(C)N(C)C)(c1ccccc1)c1ccccc1 (centres undefined)
inactive

Kindly indicate its recorded AC50. Item: COc1cc(OC)nc(NC(=O)NS(=O)(=O)c2ncccc2C(=O)N(C)C)n1
inactive

Kindly indicate its recorded AC50. Item: CCN1CCC2(CC1)COc1cc3c(cc12)N(C(=O)c1ccc(-c2ccc(-c4nnc(C)o4)cc2C)cc1)CC3
12.6 µM (active)

Kindly indicate its recorded AC50. Item: Cc1ccccc1N
inactive

----------
Test: BSK_SAg_SRB: Viability Assessment in the BioMAP Diversity Plus: SAg Assay (AID 2283096);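 also: cells read one day after compound addition; hits may be either gain or loss of signal compared with DMSO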
Conditions: primary human HUVEC with PBMC
Calls of active or inactive are those of the source. How the source made its calls: active means hit-call score of the fitted dose curve at least 0.9, where 1 is the maximum; inactive means score below 0.9.
Respond only with the outcome that fits, drawn from 1 (active), -1 (inactive)

O=C1C2(Cl)C3(Cl)C4(Cl)C(Cl)(Cl)C5(Cl)C3(Cl)C1(Cl)C5(Cl)C24Cl (stereo not drawn)
1

Hi, sorry to bother you, what did the test record for Oc1c(I)cc(I)cc1I ?
1

Hi, sorry to bother you, what did the test record for O=c1[nH]c(=O)[nH]c(=O)[nH]1 ?
-1

Hi, sorry to bother you, what did the test record for O=C(OC1CCCCC1)c1ccccc1C(=O)OC1CCCCC1 ?
1

----------
Test: BSK_3C_VCAM1: BioMAP Diversity Plus: 3C Assay for Vascular cell adhesion molecule 1 (VCAM1) Biomarker Activity (AID 2282999)
Conditions: BioMAP 3C HUVEC, VCAM1 ELISA, cytokine-stimulated; actives raise or lower the signal
Active and inactive are the calls of the source. The calls were made as follows: active = hit-call score of the fitted dose curve at least 0.9, where 1 is the maximum; inactive = score below 0.9.
Respond only with the outcome that fits, drawn from active, inactive

Some entries whose results are on file:
Nc1ncc([N+](=O)[O-])s1
inactive
O=C(Nc1ccc2[nH]ccc2c1)c1cc2cc(F)ccc2n1Cc1cccc(F)c1
active
CC(C)(OO)c1ccccc1
inactive
CCOP(=S)(OCC)Oc1nc(Cl)c(Cl)cc1Cl
active
O=C(OC1CCCCC1)c1ccccc1C(=O)OC1CCCCC1
active
CC(=O)C(Cl)C(=O)N(C)C (stereo not drawn)
active
CCC(=O)C(CC(C)N(C)C)(c1ccccc1)c1ccccc1 (stereo not drawn)
inactive
O=S(=O)(c1ccc(Cl)cc1)c1ccc(Cl)cc1
inactive

Hi, sorry to bother you, what did the test record for CCCCCCCCC(=O)NCc1ccc(O)c(OC)c1 ?
inactive

Hi, sorry to bother you, what did the test record for Nc1ccc(-c2ccc(N)c(Cl)c2)cc1Cl ?
inactive

Hi, sorry to bother you, what did the test record for CC12CC1(C)C(=O)N(c1cc(Cl)cc(Cl)c1)C2=O (stereo not drawn) ?
inactive

Hi, sorry to bother you, what did the test record for Oc1cccc2cccnc12 ?
active

Hi, sorry to bother you, what did the test record for C=C(C)C(=O)[O][Sn]([CH2]CCC)([CH2]CCC)[CH2]CCC ?
active
